B1: library; numbered along this chain (parent)
chain: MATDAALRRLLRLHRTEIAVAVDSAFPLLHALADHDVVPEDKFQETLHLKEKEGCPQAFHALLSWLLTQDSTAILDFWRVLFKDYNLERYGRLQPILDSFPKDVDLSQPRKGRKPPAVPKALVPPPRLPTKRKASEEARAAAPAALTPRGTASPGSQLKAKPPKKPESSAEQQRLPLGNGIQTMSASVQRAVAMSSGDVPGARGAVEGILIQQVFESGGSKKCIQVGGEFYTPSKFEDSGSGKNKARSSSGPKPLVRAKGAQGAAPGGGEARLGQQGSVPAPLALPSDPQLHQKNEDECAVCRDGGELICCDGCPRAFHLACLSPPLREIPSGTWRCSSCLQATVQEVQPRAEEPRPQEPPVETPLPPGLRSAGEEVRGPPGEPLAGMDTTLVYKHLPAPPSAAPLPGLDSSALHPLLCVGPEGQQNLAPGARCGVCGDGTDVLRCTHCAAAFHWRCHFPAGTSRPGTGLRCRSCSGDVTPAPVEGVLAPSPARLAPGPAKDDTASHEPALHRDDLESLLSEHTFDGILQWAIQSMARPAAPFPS

- Variants of: B1
- measurement-notes: AIRE transcriptional activation functional score (insulin promoter-GFP; nonsense median 0, synonymous median 1) (normalised score); higher = higher AIRE activity (more reporter activation)
- condition: with insulin promoter-GFP reporter in HEK293
Form field: AIRE transcriptional activation functional score (one value per entry).
property-label: AIRE transcriptional activation functional score

[[record]]
change = "A451P"
endpoint_result = 0.142

[[record]]
change = "K50M"
endpoint_result = 0.465

[[record]]
change = "T68N"
endpoint_result = 0.581

[[record]]
change = "K114Q"
endpoint_result = 0.342

[[record]]
change = "I181G"
endpoint_result = 0.602

[[record]]
change = "V199A"
endpoint_result = 0.731

[[record]]
change = "A141T"
endpoint_result = 0.967

[[record]]
change = "L470M"
endpoint_result = 0.671

[[record]]
change = "A432P"
endpoint_result = 0.463

[[record]]
change = "Q57T"
endpoint_result = 0.369

[[record]]
change = "S234E"
endpoint_result = 0.552

[[record]]
change = "T344F"
endpoint_result = 1.26

[[record]]
change = "S476E"
endpoint_result = 0.948

[[record]]
change = "R356S"
endpoint_result = 0.974

[[record]]
change = "P154K"
endpoint_result = -1.06

[[record]]
change = "P544I"
endpoint_result = 1.16

[[record]]
change = "G440F"
endpoint_result = 1.04

[[record]]
change = "Y90N"
endpoint_result = 0.194

[[record]]
change = "P407Y"
endpoint_result = 1.51

[[record]]
change = "Y90S"
endpoint_result = -0.169

[[record]]
change = "A144S"
endpoint_result = 0.773

[[record]]
change = "D304V"
endpoint_result = 0.99

[[record]]
change = "Q212F"
endpoint_result = 0.392

[[record]]
change = "C449T"
endpoint_result = 0.263

[[record]]
change = "V348D"
endpoint_result = 1.01

[[record]]
change = "S402D"
endpoint_result = 0.871

[[record]]
change = "K114E"
endpoint_result = 1.46

[[record]]
change = "E307T"
endpoint_result = 1.03

[[record]]
change = "G204N"
endpoint_result = 0.413

[[record]]
change = "A510F"
endpoint_result = 0.578

[[record]]
change = "D198G"
endpoint_result = 1.08

[[record]]
change = "R15K"
endpoint_result = -1.95

[[record]]
change = "L385K"
endpoint_result = 0.616

[[record]]
change = "P407V"
endpoint_result = 1.23

[[record]]
change = "P326D"
endpoint_result = 0.439

[[record]]
change = "S107W"
endpoint_result = 1.49

[[record]]
change = "Q293A"
endpoint_result = 0.738

[[record]]
change = "C337F"
endpoint_result = 0.845

[[record]]
change = "A140Y"
endpoint_result = 1.38

[[record]]
change = "S217H"
endpoint_result = 1.07

[[record]]
change = "E45L"
endpoint_result = 0.233

[[record]]
change = "A261G"
endpoint_result = 1.01

[[record]]
change = "V487Y"
endpoint_result = 1.13

[[record]]
change = "S169W"
endpoint_result = 1.57

[[record]]
change = "P460G"
endpoint_result = 0.909

[[record]]
change = "P252A"
endpoint_result = 1.02

